All figures here come from PubChem BioAssay (NCI).

Each entry below lists one item and its recorded TGI value.
test system: SF-295 CNS; assay: NCI tumour cell line growth inhibition, 48 h

Below: 3 compounds and their reported TGI.
# compound, measured-property, measured-value
data = [
    ("O=c1c2ccccc2c(Br)c(Br)c2ccccc12", "TGI", "36 µM"),
    ("Cn1ccnc1C(=O)/C=C/c1ccc(C(=O)Nc2ccc(S(F)(F)(F)(F)F)cc2)cc1", "TGI", "> 14.3 µM"),
    ("COc1ccccc1/C=C(\\C#N)C(=O)c1ccccc1", "TGI", "> 100 µM"),
]

Ask | What TGI value was documented for this compound, "CCOC(=O)c1c(-c2ccccc2)oc(-c2ccccc2)c1C(=O)OCC" ?
Reply | > 100 µM

Ask | What TGI value was documented for this compound, "N=C(N)c1ccc(OCCOCCOc2ccc(C(=N)N)cc2)cc1" ?
Reply | > 100 µM

Ask | What TGI value was documented for this compound, COc1ccc(N(CN2C(=O)CCC2C(=O)O)C(C)=O)cc1 (stereo not given) ?
Reply | > 100 µM

Ask | What TGI value was documented for this compound, Cc1oc2c(C)c3oc(=O)cc(C)c3cc2c1CNC(=O)[C@@H]1OCCOCCOCCOCCOCCOC1C(=O)O (stereo not given in full) ?
Reply | > 100 µM

Ask | What TGI value was documented for this compound, CN(CCCCCl)P(=O)(OCc1ccc([N+](=O)[O-])o1)OCC1OC(n2ccc(N)nc2=O)C(F)(F)C1O (stereo not given) ?
Reply | > 54.6 µM

Ask | What TGI value was documented for this compound, "Nc1nc(NCCO)c(N=O)c(=O)[nH]1" ?
Reply | > 100 µM

Ask | What TGI value was documented for this compound, "Cc1ccc(O)c(C(c2ccc([N+](=O)[O-])cc2)c2cc(C)ccc2O)c1" ?
Reply | 31.3 µM

---

tested on: SW-620 colon; experiment: NCI tumour cell line growth inhibition, 48 h; in the data active = GI50 below about 0.43 µM; inactive = the rest
Return exactly one item of active, inactive

Ask | So what was the verdict on "CCOC(=O)c1sc2ncn(Cc3cccc(Br)c3)c(=O)c2c1C" in this test?
Reply | inactive

---

system: CCRF-CEM leukemia; test: NCI tumour cell line growth inhibition, 48 h
Each entry below lists one item and its recorded TGI value.
The figure you give is taken to be in µM; do not add the unit.

# smiles, measured-property, measured-value
rows = [
    ("CN(C)Cc1cc(N=Nc2cccc(Cl)c2)ccc1O", "TGI", 36.3),
]

With those in mind, consider the next compound.
Ask | What TGI value was documented for this compound, "CC(=O)c1c(SCCN2CCCC2)n(-c2ccccc2)c(=S)n(-c2ccccc2)c1=O" ?
Reply | 4.01

---

tested on: NCI-H460 lung; experiment: NCI tumour cell line growth inhibition, 48 h
Each entry below lists one item and its recorded TGI value.

Below: 2 compounds and their reported TGI.
# compound, TGI
rows = [
    ("CCC[CH2][Sn]([CH2]CCC)([O]C(=O)c1cc(F)ccc1F)[O][Sn]([CH2]CCC)([CH2]CCC)[O]C(=O)c1cc(F)ccc1F", "2.48 µM"),
    ("CC(=O)c1c(SCCN2CCCC2)n(-c2ccccc2)c(=S)n(-c2ccccc2)c1=O", "> 46.6 µM"),
]

Ask | What TGI value was documented for this compound, "Nc1ccccc1-c1ccc([N+](=O)[O-])cc1" ?
Reply | > 100 µM

Ask | What TGI value was documented for this compound, "Cn1cc(C2=C(c3cccc(N)c3)C(=O)NC2=O)c2ccccc21" ?
Reply | > 25 µM

Ask | What TGI value was documented for this compound, OC1(c2ccc(Cl)cc2)c2c(ccc3c2OCO3)C2=NCCN21 (stereo not given) ?
Reply | > 100 µM

Ask | What TGI value was documented for this compound, "Cn1c(N)c(C(N)=O)[nH]c1=S" ?
Reply | > 100 µM

Ask | What TGI value was documented for this compound, "COc1cc(-c2cc(=O)c3c(OC)c(OC)c(OC)cc3o2)c(OC)c(OC)c1OC" ?
Reply | > 75 µM

Ask | What TGI value was documented for this compound, "Cc1noc2cccc(OCc3ccccc3)c12" ?
Reply | > 100 µM

Ask | What TGI value was documented for this compound, "Cn1cc(C2=C(c3cn(CCO)c4ccccc34)C(=O)NC2=O)c2ccccc21" ?
Reply | > 25 µM

Ask | What TGI value was documented for this compound, CC(=O)Oc1cc(C)c2c(c1OC(C)=O)CC1(O2)[C@@H](C)CCC2[C@@]3(C)CC[C@H](OC(C)=O)C(C)(C)C3CC[C@]21C (stereo not given in full) ?
Reply | 10.8 µM

Ask | What TGI value was documented for this compound, "O=C(CCC(=O)Nc1cccc(Cl)c1)CC(=O)c1ccc(F)cc1" ?
Reply | > 100 µM
